B1: RHOBTB2 (parent)
chain: LYTGELDENERDLMHIAHIAELLE

Variants of: B1
method-description: protein stability index of a GFP-peptide fusion (GPS, HEK-293T) (PSI 1-6); higher = more stable;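 note: lentivirally expressed fusions sorted by FACS into six bins by GFP to DsRed ratio, PSI derived from sequencing read proportions per bin multiplied by bin number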
condition-summary: c terminus: a fixed tail appended
Below, each of the variants is paired with its reported protein stability index value.
Just the number, please, no unit after it.

Here is how some variants turned out for protein stability index.
variant-id	val
I16K	4.05
I19R	4.17
A17L	1.45
L23A	4.33
E10A	2.58
G4Q	2.7
E8L	1.57
L1D	3.08
E5A	2.12
I16H	3.76

Exam item: Quick one: protein stability index for L22Y ?
Marked response: 3.03

Exam item: Quick check: protein stability index of H18L ?
Marked response: 1.23

Sourced from the supplement of paper PMC10567573
